Cited source for all entries: patent EP4644389A1

Experiment: Pharmacokinetic evaluation in mice (IV and oral)
Settings: female, CD1, mouse, in vivo, iv, 2 mg/kg
Readout: half-life (h)
One number for each entry, in h.

Query :: Reported half-life for "Cc1c(CO)c(N)nc2cc(F)c(C(=O)N(C)[C@@H]3COc4cc(C(F)(F)F)ccc43)cc12" : what is it?
Result :: 3.3

----------
Test system: MDR1 (P-gp)
Experiment: MDCK-MDR1 membrane permeability assay
Type: in vitro ADME
Settings: dog; MDCK-MDR1, 1 µM, pH 7.4, 2 hours
Readout: Papp A→B at 2 h, 1 µM (×10⁻⁶ cm/s)
Answers are plain numbers, in ×10⁻⁶ cm/s.

Query :: Reported Papp A→B at 2 h, 1 µM for Cc1c(CO)c(N)nc2cc(F)c(C(=O)N(C)[C@@H]3COc4cc(C(F)(F)F)ccc43)cc12 [Compound A9a] : what is it?
Result :: 5.1
